system-under-test: Diacylglycerol lipase-beta (Mus musculus)
test-protocol: mouse DAGLb inhibitors by competitive ABPP, late-stage follow-up, biochemical, gel-based fluorescence, overexpressed mouse, set 2 (AID 602299)
assay-context: HEK293T membrane overexpressed mouse DAGLb, at 10 µM, hits give high values
inhibition listing for selected compounds.
Unit % implied. Number only.

compound | system-under-test | unit-symbol | inhibition
O=C(N1CCCCC1c1ccccc1)n1cc(-c2ccc(-c3ccccc3)cc2)nn1 (stereo not drawn) | Diacylglycerol lipase-beta (Mus musculus) | % | 50

Now consider a different compound.
Prompt: Would you mind telling me what inhibition value was observed for COc1ccccc1-c1ccc(-c2cn(C(=O)N3CCCC(Cc4ccccc4)C3)nn2)cc1 (stereo not drawn) ?
Completion: 99
